biological target: BACE1 (Homo sapiens)
Sequence (P56817 46-501): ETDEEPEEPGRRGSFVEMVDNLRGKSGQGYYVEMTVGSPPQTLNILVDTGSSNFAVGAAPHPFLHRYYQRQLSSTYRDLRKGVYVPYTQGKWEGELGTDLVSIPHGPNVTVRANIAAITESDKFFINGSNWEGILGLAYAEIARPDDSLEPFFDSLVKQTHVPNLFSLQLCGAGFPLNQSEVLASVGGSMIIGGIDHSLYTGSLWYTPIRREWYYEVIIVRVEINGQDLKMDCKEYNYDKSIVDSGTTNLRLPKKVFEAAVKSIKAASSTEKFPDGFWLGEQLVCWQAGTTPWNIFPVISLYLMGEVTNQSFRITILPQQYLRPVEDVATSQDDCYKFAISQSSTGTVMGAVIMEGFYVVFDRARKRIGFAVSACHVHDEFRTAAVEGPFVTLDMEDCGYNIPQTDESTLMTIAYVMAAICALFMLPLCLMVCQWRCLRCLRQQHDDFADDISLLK
Structures can show the parent of a compound that is named as a salt.
endpointName: Kd (nM)
Number in nM, nothing else.

query: I'd like to know its Kd. The compound in question is C[C@@]1(c2cc(NC(=O)c3ccc(Cl)cn3)ccc2F)CO[C@H](Cc2ccccc2)C(N)=N1 [Example 28]
result: 71

query: Record: CC1(c2cccc(NC(=O)c3cccc(Cl)c3)c2)COCC(N)=N1 (racemic) [Example 6]
result: 6900

query: Field entry: CC1(c2cccc(NC(=O)c3ccc(Cl)cc3Cl)c2)COCC(N)=N1 (racemic) [Example 4]
result: 1720

query: What do you get for C[C@@]1(c2cc(NC(=O)c3ccc(OC(F)F)cn3)ccc2F)COCC(N)=N1 [Example 73, hydrochloride] ?
result: 9

query: Query C[C@@]1(c2cc(NC(=O)C(F)F)ccc2F)COCC(N)=N1 [Example 91, formate] next
result: 994

query: Same question for C[C@@]1(c2cc(NC(=O)c3ccc(C#N)cn3)ccc2F)COCC(N)=N1 [Example 72, hydrochloride] please.
result: 16

query: What do you get for CC1(c2cccc(NC(=O)c3ccc(OCC4CC4)cn3)c2)COCC(N)=N1 (racemic) [Example 60, hydrochloride] ?
result: 112

query: # repeat for CCc1cc(Cl)cnc1C(=O)Nc1ccc(F)c([C@]2(C)COCC(N)=N2)c1 [Example 70, hydrochloride]
result: 1100

query: Try Cn1nc(C(=O)Nc2cccc(C3(C)COCC(N)=N3)c2)c2ccccc21 (racemic) [Example 15] next.
result: 20100

query: Same lookup for C[C@@]1(c2cc(NC(=O)c3cnc(C(F)(F)F)cn3)ccc2F)COCC(N)=N1 [Example 81, formate] , please.
result: 102

query: Also need CC(F)C(=O)Nc1ccc(F)c([C@]2(C)COCC(N)=N2)c1 (mixture of isomers) [Example 87, formate] , thanks.
result: 474

###

biological target: BACE2 (Rattus norvegicus); construct: endogenous cellular BACE2 in the Ins1e rat cell line; endogenous in cells; test: Assay for BACE inhibition by measuring cellular TMEM27 cleavage; conditions: INS-TMEM27 (INS1e-derived) cells, ELISA of shed human TMEM27 in supernatant;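 further: inhibitor added 2 h before doxycycline-induced hTMEM27 expression, supernatant collected after further 46 h, endogenous BACE2 activity read as reduced TMEM27 shedding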
Sequence (Q6IE75 63-514): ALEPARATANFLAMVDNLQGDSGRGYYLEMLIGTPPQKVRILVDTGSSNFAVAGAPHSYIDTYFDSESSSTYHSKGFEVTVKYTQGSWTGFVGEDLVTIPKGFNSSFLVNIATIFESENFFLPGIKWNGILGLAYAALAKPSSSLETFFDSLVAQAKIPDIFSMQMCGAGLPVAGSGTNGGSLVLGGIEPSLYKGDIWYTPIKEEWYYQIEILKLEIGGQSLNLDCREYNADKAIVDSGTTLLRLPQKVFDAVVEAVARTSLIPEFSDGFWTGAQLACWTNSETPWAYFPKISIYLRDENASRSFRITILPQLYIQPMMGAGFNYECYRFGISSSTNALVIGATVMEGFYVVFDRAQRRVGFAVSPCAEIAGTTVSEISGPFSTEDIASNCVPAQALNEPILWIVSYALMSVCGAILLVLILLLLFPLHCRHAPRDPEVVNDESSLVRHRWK
Counter-ions that a name gives are not always drawn.
Sorting guide: entries reporting IC50 beneath 400 nM go in the t pile, the rest go in the f pile.

query: Given the entry C[C@@]1(c2cc(NC(=O)c3ccc(Cl)cn3)ccc2F)COCC(N)=N1 [Example 21] , would its reported IC50 be below 400 nM?
result: t

query: What do we get for C[C@@]1(c2cc(NC(=O)c3ncc(Cl)cc3Cl)ccc2F)COCC(N)=N1 [Example 34] ?
result: t

query: Moving on to the next compound: C[C@@]1(c2cc(NC(=O)c3cnc(C(F)(F)F)cn3)ccc2F)COCC(N)=N1 [Example 81, formate]
result: t

query: Now try C[C@@]1(c2cc(NC(=O)C(F)C(F)(F)F)ccc2F)COCC(N)=N1 (mixture of isomers) [Example 89, formate] .
result: f

query: Further, for C[C@@]1(c2cc(NC(=O)c3ccc(OC(F)F)cn3)ccc2F)COCC(N)=N1 [Example 73, hydrochloride] ?
result: t

query: And CC1(c2cc(NC(=S)c3ccc(Cl)cc3)ccc2F)COCC(N)=N1 (racemic) [Example 27] ?
result: t

query: Item: C[C@@]1(c2cc(NC(=O)c3ccc(Cl)cn3)ccc2F)CO[C@@H](Cc2ccccc2)C(N)=N1 (racemic) [Example 29]
result: t

query: Then this compound: C[C@@]1(c2cc(NC(=O)c3cnc(C(F)(F)F)cn3)ccc2F)COCC(N)=N1 [Example 82, formate]
result: t

query: Then this compound: Cc1nc(C(=O)Nc2cccc(C3(C)COCC(N)=N3)c2)co1 (racemic) [Example 12]
result: t

query: Thanks! And Cc1nc(C(=O)Nc2ccc(F)c([C@]3(C)COCC(N)=N3)c2)co1 [Example 39] ?
result: t

query: Cool, now C[C@@]1(c2cc(NC(=O)c3ccn(C(F)F)n3)ccc2F)COCC(N)=N1 [Example 40]
result: t

query: Do the same for Cc1cc(C(=O)Nc2cccc(C3(C)COCC(N)=N3)c2)c(C)s1 (racemic) [Example 9] please
result: t

query: Same again, this time with Cc1cc(Cl)cnc1C(=O)Nc1ccc(F)c([C@]2(C)COCC(N)=N2)c1 [Example 98]
result: t

query: Lookup CCC(=O)Nc1ccc(F)c([C@]2(C)COCC(N)=N2)c1 [Example 94, formate]
result: f

query: Now the compound CC(=O)Nc1ccc(F)c([C@]2(C)COCC(N)=N2)c1 [Example 93, formate]
result: f

query: For C[C@@]1(c2cc(NC(=O)c3ncc(C(F)(F)F)cc3Cl)ccc2F)COCC(N)=N1 [Example 38] then?
result: t

query: What about this compound? COCC(=O)Nc1ccc(F)c([C@]2(C)COCC(N)=N2)c1 [Example 84, formate]
result: t

query: Try C[C@@]1(c2cc(NC(=O)c3ccc(F)cn3)ccc2F)COCC(N)=N1 [Example 99] next.
result: t

query: Try this compound too: CC1(c2cc(NC(=O)C(F)(F)C(F)(F)F)ccc2F)COCC(N)=N1 (racemic) [Example 26]
result: f

query: CC1(c2cccc(NC(=O)c3ccc(Cl)s3)c2)COCC(N)=N1 (racemic) [Example 8] , same question.
result: t

query: Next compound up: CC1(c2cccc(NC(=O)c3ccc(Cl)cc3Cl)c2)COCC(N)=N1 (racemic) [Example 4]
result: f

query: Cool, now CC(C)C(=O)Nc1ccc(F)c([C@]2(C)COCC(N)=N2)c1 [Example 88, formate]
result: f

query: Try C[C@@]1(c2cc(NC(=O)c3ncc(Cl)cc3F)ccc2F)COCC(N)=N1 [Example 74, hydrochloride] next.
result: f

query: Would you mind doing C[C@@]1(c2cc(NC(=O)c3ncccc3F)ccc2F)COCC(N)=N1 [Example 37] as well?
result: t

query: Try this compound too: C[C@@]1(c2cc(NC(=O)C3CC3(F)F)ccc2F)COCC(N)=N1 (mixture of isomers) [Example 53]
result: f

query: Subsequent entry: Cc1nc(C(F)(F)F)c(C(=O)Nc2ccc(F)c([C@]3(C)COCC(N)=N3)c2)s1 [Example 47]
result: f

query: Next compound: CC(F)(F)C(=O)Nc1ccc(F)c([C@]2(C)COCC(N)=N2)c1 [Example 90, formate]
result: f

query: Likewise for CC1(C)OCC(N)=N[C@]1(C)c1cc(NC(=O)c2ccc(Cl)cn2)ccc1F [Example 49] ?
result: t

query: Also CC(C)(F)C(=O)Nc1ccc(F)c([C@]2(C)COCC(N)=N2)c1 [Example 92, formate] , if possible.
result: f

query: Also need C[C@@]1(c2cc(NC(=O)c3coc(C(F)(F)F)c3)ccc2F)COCC(N)=N1 [Example 36] , thanks.
result: t

query: Proceed to C[C@@]1(c2cc(NC(=O)c3ncc(Cl)cn3)ccc2F)COCC(N)=N1 [Example 35]
result: t

query: Further, for NC1=NC(c2cc(NC(=O)c3ccc(Cl)cn3)ccc2F)(C2CC2)COC1 (racemic) [Example 22] ?
result: t

query: Follow-up item: C[C@@]1(c2cc(NC(=O)c3ncc(F)cc3F)ccc2F)COCC(N)=N1 [Example 41]
result: t

###

target: BACE2 (Homo sapiens)
Sequence (Q9Y5Z0 63-473 limits assumed): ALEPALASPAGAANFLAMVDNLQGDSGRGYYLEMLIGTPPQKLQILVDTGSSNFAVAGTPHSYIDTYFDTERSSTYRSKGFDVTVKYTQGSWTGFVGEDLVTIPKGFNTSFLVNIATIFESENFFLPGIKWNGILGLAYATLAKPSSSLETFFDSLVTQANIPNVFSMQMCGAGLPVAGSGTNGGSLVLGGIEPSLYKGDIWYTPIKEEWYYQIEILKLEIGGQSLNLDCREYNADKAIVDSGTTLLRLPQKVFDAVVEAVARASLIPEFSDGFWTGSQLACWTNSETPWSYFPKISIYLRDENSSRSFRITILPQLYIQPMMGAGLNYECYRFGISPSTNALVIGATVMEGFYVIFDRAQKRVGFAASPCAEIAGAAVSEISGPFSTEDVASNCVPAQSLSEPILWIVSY
Where a name gives a salt, the structure may show the parent alone.
endpointName: Kd (µM)
API: value field is a number in µM; no unit string.

query: Look at this molecule and give its reported Kd. CC1(C)OCC(N)=N[C@]1(C)c1cc(NC(=O)c2ccc(Cl)cn2)ccc1F
result: 0.022

query: Repeat with Cn1nc(C(=O)Nc2cccc(C3(C)COCC(N)=N3)c2)c2ccccc21 (racemic)
result: 6.7

query: Moving on to the next molecule: C=CCCOc1ccc(C(=O)Nc2cccc(C3(C)COCC(N)=N3)c2)nc1 (racemic)
result: 7.82

query: Quick one: C[C@@]1(c2cc(NC(=O)C3CCOC3)ccc2F)COCC(N)=N1 (mixture of isomers) [Example 96, formate]
result: 6.1

query: And Cc1ccsc1C(=O)Nc1ccc(F)c([C@]2(C)COCC(N)=N2)c1 ?
result: 0.043

###

Record form. Attribute: IC50. Fill in for each entry.
molecular target: BACE1 (Homo sapiens); experiment: Cellular Abeta-lowering assay; settings: HEK293 cells stably transfected with human APP wt (APP695), Aβ40 ELISA of supernatant after 18-20 hrs
Where a name gives a salt, the structure may show the parent alone.
State just the number; it will be interpreted in µM.

query: // query IC50 value for entry C[C@@]1(c2cc(NC(=O)c3cnc(C(F)(F)F)cn3)ccc2F)COCC(N)=N1 [Example 82, formate]
result: 0.046

query: Could you do the same for CCC(=O)Nc1ccc(F)c([C@]2(C)COCC(N)=N2)c1 [Example 94, formate] , please?
result: 1.4

query: Lookup C[C@@]1(c2cc(NC(=O)C(F)C(F)(F)F)ccc2F)COCC(N)=N1 (mixture of isomers) [Example 89, formate]
result: 0.5

query: Try the compound COCC(=O)Nc1ccc(F)c([C@]2(C)COCC(N)=N2)c1 [Example 84, formate]
result: 0.14
